Provide the recorded total protein half-life in vivo for the entries that follow.
measurement_protocol: total protein half-life in vivo (active degradation + dilution); higher = more stable protein
condition_parameters: wild type E. coli NCM3722; growth: C-lim chemostat; doubling time 3 h
// return numeric value only (unit: h, not printed)

Incoming: Name the reported total protein half-life in vivo value associated with the sequence MRTTSFAKVAALCGLLALSGCASKITQPDKYSGFLNNYSDLKETTSATGKPVLRWVDPSFDQSKYDSIVWNPITYYPVPKPSTQVGQKVLDKILNYTNTEMKEAIAQRKPLVTTAGPRSLIFRGAITGVDTSKEGLQFYEVVPVALVVAGTQMATGHRTMDTRLYFEGELIDAATNKPVIKVVRQGEGKDLNNESTPMAFENIKQVIDDMATDATMFDVNKK
Outgoing: 3.33

Incoming: Moving on to MHGNSEMQKINQTSAMPEKTDVHWSGRFSVAPMLDWTDRHCRYFLRLLSRNTLLYTEMVTTGAIIHGKGDYLAYSEEEHPVALQLGGSDPAALAQCAKLAEARGYDEINLNVGCPSDRVQNGMFGACLMGNAQLVADCVKAMRDVVSIPVTVKTRIGIDDQDSYEFLCDFINTVSGKGECEMFIIHARKAWLSGLSPKENREIPPLDYPRVYQLKRDFPHLTMSINGGIKSLEEAKAHLQHMDGVMVGREAYQNPGILAAVDREIFGSSDTDADPVAVVRAMYPYIERELSQGTYLGHITRHMLGLFQGIPGARQWRRYLSENAHKAGADINVLEHALKLVADKR
Outgoing: 3.01

Incoming: Moving on to MSNTPIELKGSSFTLSVVHLHEAEPKVIHQALEDKIAQAPAFLKHAPVVLNVSALEDPVNWSAMHKAVSATGLRVIGVSGCKDAQLKAEIEKMGLPILTEGKEKAPRPAPTPQAPAQNTTPVTKTRLIDTPVRSGQRIYAPQCDLIVTSHVSAGAELIADGNIHVYGMMRGRALAGASGDRETQIFCTNLMAELVSIAGEYWLSDQIPAEFYGKAARLQLVENALTVQPLN
Outgoing: 2.98

Attribution: the supplement of paper PMC11246515
